For each of the compounds below, state its AC50.
STUDY_SYSTEM: Alpha-2A adrenergic receptor (Homo sapiens); further: assay procedure not described here
Sequence (P08913 whole entry): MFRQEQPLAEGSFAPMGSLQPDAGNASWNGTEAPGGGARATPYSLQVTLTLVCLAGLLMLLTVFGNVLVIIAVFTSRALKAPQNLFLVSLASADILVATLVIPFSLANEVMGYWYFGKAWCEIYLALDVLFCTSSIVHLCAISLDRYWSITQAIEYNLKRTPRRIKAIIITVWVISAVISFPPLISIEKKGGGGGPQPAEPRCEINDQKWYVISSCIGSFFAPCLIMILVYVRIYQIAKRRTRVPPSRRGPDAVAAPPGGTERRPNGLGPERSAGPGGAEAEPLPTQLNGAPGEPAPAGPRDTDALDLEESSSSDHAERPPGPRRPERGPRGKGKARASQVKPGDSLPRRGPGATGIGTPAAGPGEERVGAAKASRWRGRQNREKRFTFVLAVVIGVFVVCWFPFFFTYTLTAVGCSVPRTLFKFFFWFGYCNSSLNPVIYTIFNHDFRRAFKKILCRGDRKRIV
Format: functional, cell-based

Ask | Lab note: need AC50 for CCOc1ccccc1OCC1CNCCO1 (centres undefined) on Alpha-2A adrenergic receptor (Homo sapiens), anyone have it?
Reply | > 10 µM

Ask | What value of AC50 on Alpha-2A adrenergic receptor (Homo sapiens) does CCCCCCOc1ccccc1C(N)=O [EXALAMIDE] have?
Reply | > 30 µM

Ask | Item NCC(CC(=O)O)c1ccc(Cl)cc1 (centres undefined) with Alpha-2A adrenergic receptor (Homo sapiens) - AC50?
Reply | > 30 µM

Ask | Form: Entry = COc1ccc2c3c1O[C@H]1[C@@H](O)CC[C@H]4[C@@H](C2)N(C)CC[C@@]341 [DIHYDROCODEINE] | System = Alpha-2A adrenergic receptor (Homo sapiens) | AC50 = ____; further: assay procedure not described here
Reply | > 30 µM

Ask | // lookup AC50 | system=Alpha-2A adrenergic receptor (Homo sapiens) | key= CCCN(CCC)C(=O)C(CCC(=O)O)NC(=O)c1ccccc1 (centres undefined) [PROGLUMIDE]; further: assay procedure not described here
Reply | > 10 µM

Ask | So what AC50 did C=CCN1CCCC1CNC(=O)c1cc(S(N)(=O)=O)cc(OC)c1OC (centres undefined) [VERALIPRIDE] get with Alpha-2A adrenergic receptor (Homo sapiens)?
Reply | 26 µM

Ask | What measured AC50 is associated with CO/N=C(\C(=O)N[C@@H]1C(=O)N2C(C(=O)O)=C(CSc3nnnn3C)CS[C@H]12)c1csc(N)n1 on Alpha-2A adrenergic receptor (Homo sapiens)?
Reply | > 30 µM

Ask | Form entry - test system: Alpha-2A adrenergic receptor (Homo sapiens); read-out: AC50; compound: CCOC(=O)[C@H](CCc1ccccc1)N[C@@H](C)C(=O)N1[C@H](C(=O)O)C[C@@H]2CCC[C@@H]21; further: assay procedure not described here
Reply | > 10 µM

Ask | Test system Alpha-2A adrenergic receptor (Homo sapiens); read-out AC50; what value for COc1ccc(CCN(C)CCCC(C#N)(c2cc(OC)c(OC)c(OC)c2)C(C)C)cc1OC (centres undefined) ?; further: assay procedure not described here
Reply | 25 µM

Ask | State its AC50 on Alpha-2A adrenergic receptor (Homo sapiens): O=C1Nc2ccc(Cl)cc2[C@@](C#CC2CC2)(C(F)(F)F)O1
Reply | > 10 µM

Ask | Entry Nc1nc(Cl)nc2c1ncn2[C@H]1C[C@H](O)[C@@H](CO)O1 , system Alpha-2A adrenergic receptor (Homo sapiens): what AC50 was measured?; further: assay procedure not described here
Reply | > 30 µM

Ask | What AC50 appears in the records for this compound with Alpha-2A adrenergic receptor (Homo sapiens)? CN1CCN(C2=Nc3ccccc3Sc3ccc(Cl)cc32)CC1
Reply | > 30 µM

Ask | Query AC50 on Alpha-2A adrenergic receptor (Homo sapiens) for CC/C(=C(\c1ccccc1)c1ccc(OCCN(C)C)cc1)c1ccccc1
Reply | > 10 µM

Ask | Item NC(=O)OCC(COC(N)=O)c1ccccc1 [FELBAMATE] with Alpha-2A adrenergic receptor (Homo sapiens) - AC50?
Reply | > 10 µM

----------
STUDY_SYSTEM: 5-hydroxytryptamine receptor 2A (Homo sapiens, UniProt P28223); further: assay procedure not described here
Sequence (P28223 whole entry): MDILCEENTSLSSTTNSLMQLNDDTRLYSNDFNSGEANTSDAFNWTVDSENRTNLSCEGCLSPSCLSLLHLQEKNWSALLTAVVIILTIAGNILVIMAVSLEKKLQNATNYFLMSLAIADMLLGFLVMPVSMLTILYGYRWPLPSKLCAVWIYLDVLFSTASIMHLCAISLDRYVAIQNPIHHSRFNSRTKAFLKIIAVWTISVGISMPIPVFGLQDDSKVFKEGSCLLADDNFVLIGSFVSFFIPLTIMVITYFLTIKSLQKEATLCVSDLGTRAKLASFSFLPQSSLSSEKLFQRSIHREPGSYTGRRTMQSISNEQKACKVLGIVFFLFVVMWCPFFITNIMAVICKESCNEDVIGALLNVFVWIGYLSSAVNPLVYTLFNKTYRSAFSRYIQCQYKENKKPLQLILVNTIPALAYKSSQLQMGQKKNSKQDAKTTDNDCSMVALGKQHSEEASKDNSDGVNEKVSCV
READOUT_LABEL: AC50

Ask | // lookup AC50 | system=5-hydroxytryptamine receptor 2A (Homo sapiens, UniProt P28223) | key= COc1ccc(C(=O)Nc2ccccc2CCC2CCCCN2C)cc1 (stereo not given) [ENCAINIDE]; further: assay procedure not described here
Reply | 0.103 µM

Ask | API: value(readout= AC50, system= 5-hydroxytryptamine receptor 2A (Homo sapiens, UniProt P28223), query= O=C1Nc2ccc(Cl)cc2[C@@](C#CC2CC2)(C(F)(F)F)O1 ); further: assay procedure not described here
Reply | 3.79 µM

Ask | What AC50 appears in the records for this compound with 5-hydroxytryptamine receptor 2A (Homo sapiens, UniProt P28223)? CN1C(C(=O)Nc2ccccn2)=C(O)c2sc(Cl)cc2S1(=O)=O
Reply | > 10 µM

Ask | Lab note: need AC50 with 5-hydroxytryptamine receptor 2A (Homo sapiens, UniProt P28223) for entry Cc1c(C(=O)NN2CCCCC2)nn(-c2ccc(Cl)cc2Cl)c1-c1ccc(Cl)cc1 , please look it up.
Reply | > 10 µM

Ask | For the record CN1CCC(=C2c3ccccc3CCc3sccc32)CC1 , what value of AC50 is listed for 5-hydroxytryptamine receptor 2A (Homo sapiens, UniProt P28223)?
Reply | 0.0002 µM

Ask | Hi! What's the reported AC50 for CCCCCNC(=N)N/N=C/c1c[nH]c2ccc(OC)cc12 on 5-hydroxytryptamine receptor 2A (Homo sapiens, UniProt P28223)?
Reply | 0.174 µM

Ask | Request - read-out AC50 | tested on 5-hydroxytryptamine receptor 2A (Homo sapiens, UniProt P28223) | compound CCCCc1ncc(/C=C(\Cc2cccs2)C(=O)O)n1Cc1ccc(C(=O)O)cc1; further: assay procedure not described here
Reply | > 10 µM

Ask | Find AC50 (5-hydroxytryptamine receptor 2A (Homo sapiens, UniProt P28223)) for the entry CCc1c(Cl)c(O)c(Cl)c(O)c1C(=O)O[C@H]1[C@H](O)[C@H](OC)[C@H](OC/C2=C\C=C\C[C@H](O)/C(C)=C/[C@H](CC)[C@@H](O[C@@H]3OC(C)(C)[C@@H](OC(=O)C(C)C)[C@H](O)[C@@H]3O)/C(C)=C/C(C)=C/C[C@@H]([C@@H](C)O)OC2=O)O[C@@H]1C
Reply | > 10 µM

Ask | Value wanted: AC50 (5-hydroxytryptamine receptor 2A (Homo sapiens, UniProt P28223)) of entry COc1ccc2c3c1O[C@H]1[C@@H](O)C=C[C@H]4[C@@H](C2)N(C)CC[C@@]341
Reply | > 10 µM

Ask | Form field - read-out: AC50; system: 5-hydroxytryptamine receptor 2A (Homo sapiens, UniProt P28223); submitted item: Cc1nnc2n1-c1ccc(Cl)cc1C(c1ccccc1Cl)=NC2; further: assay procedure not described here
Reply | 3.2 µM
